- Test system: ras mRNA in T24 cells (activated codon 12)
- experimentalDetails: Northern blot analysis of ras expression in T24 cells
- Assay type: cell-based, human
- Design: concentration or dose not given beside the values
valueType: inhibition of ras mRNA (%)
Reply numerically in %, unit not repeated.

Using known records, supply inhibition of ras mRNA for TCCGTCATCGCTCCTCAGGG [compound 2503] 71

Using known records, supply inhibition of ras mRNA for CCACACCGACGGCGCCC [3985] (chemistry not given here) [compound 3985, chimeric phosphorothioate, 2'-O-methyl ends, deoxy gap 7] 95

Using known records, supply inhibition of ras mRNA for CTTATATTCCGTCATCGCTC [4998] (phosphorothioate, 2'-O-methyl wings, 7-deoxy gap, further chemistry not given here) [compound 4998] 84

Using known records, supply inhibition of ras mRNA for CTTATATTCCGTCATCGCTC [2502] (phosphorothioate, further chemistry not given here) [compound 2502] 26

Using known records, supply inhibition of ras mRNA for CCACACCGACGGCGCCC [2570] (phosphorothioate, further chemistry not given here) [compound 2570] 82

Using known records, supply inhibition of ras mRNA for TCCGTCATCGCTCCTCAGGG [compound 5122] 15

====

So I've got a bunch of substances here, and I need their T 1/2 values.
- measurementContext: crude HeLa cellular extracts, 37° C.

Using known records, supply T 1/2 for CsCsAsCsAsCsCoGoAoCoGsGsCsGsCsCsC [compound 4593] ~3.2 h

Using known records, supply T 1/2 for CsCsAsCsAsCsCsGoAoCoGsGsCsGsCsCsC [compound 4551] ~3.75 h
